All figures here come from ChEMBL document CHEMBL1142418.

// endpoint pKi / system cAMP and cAMP-inhibited cGMP 3',5'-cyclic phosphodiesterase 10A (Homo sapiens)
Answers are plain numbers, as −log10 of the molar value.

Reference set, count: 4
Please respond with reported pKi (system cAMP and cAMP-inhibited cGMP 3',5'-cyclic phosphodiesterase 10A (Homo sapiens)) for COc1cc2ncnc(N3CC[C@@H](Oc4ccc5cccnc5c4)C3)c2cc1OC .
7.92

// fetch pKi for COc1cc2ncnc(N3CC[C@@H](Oc4cccc(C(C)C)c4)C3)c2cc1OC ; system: cAMP and cAMP-inhibited cGMP 3',5'-cyclic phosphodiesterase 10A (Homo sapiens)
Sequence (Q9Y233 whole entry): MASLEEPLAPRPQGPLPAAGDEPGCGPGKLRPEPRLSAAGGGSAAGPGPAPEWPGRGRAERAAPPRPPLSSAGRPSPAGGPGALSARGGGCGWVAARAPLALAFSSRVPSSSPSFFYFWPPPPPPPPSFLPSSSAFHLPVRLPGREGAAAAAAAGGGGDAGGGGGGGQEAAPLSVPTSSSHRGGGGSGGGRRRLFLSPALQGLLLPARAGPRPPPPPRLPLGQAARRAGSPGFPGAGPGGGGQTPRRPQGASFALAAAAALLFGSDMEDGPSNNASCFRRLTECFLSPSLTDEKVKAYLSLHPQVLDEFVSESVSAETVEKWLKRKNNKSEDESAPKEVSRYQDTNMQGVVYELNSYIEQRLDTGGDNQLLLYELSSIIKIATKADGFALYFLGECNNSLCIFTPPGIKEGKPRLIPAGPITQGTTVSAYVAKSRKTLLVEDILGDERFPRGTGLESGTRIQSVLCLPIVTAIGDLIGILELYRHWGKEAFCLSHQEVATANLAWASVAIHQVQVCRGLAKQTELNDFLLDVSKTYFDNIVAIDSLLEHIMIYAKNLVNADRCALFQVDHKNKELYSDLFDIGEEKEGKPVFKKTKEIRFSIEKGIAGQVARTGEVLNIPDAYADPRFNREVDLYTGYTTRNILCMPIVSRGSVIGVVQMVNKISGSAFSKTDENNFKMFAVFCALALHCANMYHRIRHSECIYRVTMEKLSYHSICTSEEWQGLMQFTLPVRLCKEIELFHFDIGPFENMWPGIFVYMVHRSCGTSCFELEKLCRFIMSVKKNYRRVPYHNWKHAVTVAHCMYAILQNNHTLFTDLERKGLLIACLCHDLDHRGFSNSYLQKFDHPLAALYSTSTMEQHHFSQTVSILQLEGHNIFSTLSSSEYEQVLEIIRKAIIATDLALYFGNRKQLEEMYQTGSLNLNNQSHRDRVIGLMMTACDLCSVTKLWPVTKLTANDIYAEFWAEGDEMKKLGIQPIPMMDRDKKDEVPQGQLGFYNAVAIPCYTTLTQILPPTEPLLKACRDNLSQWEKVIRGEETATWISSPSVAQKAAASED
6.77

Param request: pKi | system cAMP and cAMP-inhibited cGMP 3',5'-cyclic phosphodiesterase 10A (Homo sapiens) | item COc1cc2ncnc(N3CC[C@@H](Oc4cc5ccccc5cn4)C3)c2cc1OC
7.72

# assay system cAMP and cAMP-inhibited cGMP 3',5'-cyclic phosphodiesterase 10A (Homo sapiens): give pKi of COc1cc2ncnc(N3CC[C@@H](Oc4cccnc4)C3)c2cc1OC
6.89

Batch request: pKi for each of the following compounds.
1. COc1cc2ncnc(N3CC[C@@H](Oc4ccccc4Cl)C3)c2cc1OC
2. COc1cc2ncnc(N3CC[C@@H](Oc4ccccc4C#N)C3)c2cc1OC
3. CCOc1cccc(O[C@@H]2CCN(c3ncnc4cc(OC)c(OC)cc34)C2)c1
4. COc1cc2ncnc(N3CC[C@@H](Oc4ccc5c(c4)CCC5)C3)c2cc1OC
5. COc1cc2ncnc(N3CC[C@@H](Oc4cccc5ccccc45)C3)c2cc1OC
6. COc1cc2ncnc(N3CC[C@@H](Oc4ccncc4)C3)c2cc1OC

6.70
6.89
7.03
7.17
6.68
6.95

----------
# pKi per entry for cAMP and cAMP-inhibited cGMP 3',5'-cyclic phosphodiesterase 10A (Homo sapiens)
Answers are plain numbers, as −log10 of the molar value.

Could you report pKi for every entry in the following list?
1. COc1ccc2ccc(O[C@@H]3CCN(c4ncnc5cc(OC)c(OC)cc45)C3)cc2c1
2. COc1cc2ncnc(N3CC[C@@H](Oc4ccccc4C(F)(F)F)C3)c2cc1OC
3. COc1cc2ncnc(N3CC[C@@H](Oc4ccc5ncccc5c4)C3)c2cc1OC
4. COc1ccc2cc(O[C@@H]3CCN(c4ncnc5cc(OC)c(OC)cc45)C3)ccc2c1
5. COc1cc2ncnc(N3CC[C@@H](Oc4ccccc4C)C3)c2cc1OC

1. 7.77
2. 6.09
3. 7.92
4. 7.74
5. 6.49
